Recorded measurements of remaining activity at 1500 µM, one per entry
Molecular target: GMP-140 (Homo sapiens, UniProt P16109)
Experiment: ELISA of binding of biotinylated monoclonal antibodies G1, G2, G3 to immobilized GMP-140 with soluble peptide
Set-up: from tissue; host or cells: outdated human platelet packs (platelet lysate)
Conditions: 2 h; mAb G2 2.5 micrograms/ml; peptide 1.5 mM; read-out: % Binding of Biotinylated MAbs G2
Procedure: Based on competitive ELISAs with the purified protein, G1, G2, and G3 each recognize distinct or only partially overlapping epitopes. […] Binding was measured by an ELISA with an avidin detection system. […] Biotinylated antibody (2.5 μg/ml) with or without 1.5 mM peptide was incubated with wells coated with GMP-140 as described in example 1. […] The color reaction was read at 405 nm.
Ends that are not written are not given here.
Give the number; % is assumed, so skip it.

// worked examples, remaining activity at 1500 µM included
> print(dat)
                                  substance  val
1  KDDGKCPLNPHSHLGTY [C-TERMINUS 761-777, reference compound]  100
2                  LKKKHAL [LECTIN 110-116]  100
3  RKRFRQK [TRANSMEMBRANE 755-761, reference compound]  119
4  CSDTRGEFNVGST [REPEATS 544-556, reference compound]   96
5  CQDDGK [SECRETORY 720-721/762-765, reference compound]   99
6            YTASCQDMS [LECTIN/EGF 118-126]   92
7        VEIYIKSPSAPGKWNDEH [LECTIN 91-108]   93
8              YPGFYGPECEYVRE [EGF 145-158]   92

Could you now consider this next substance?
Report remaining activity at 1500 µM under test system GMP-140 (Homo sapiens, UniProt P16109) for LETIGNYT [EGF 134-141] .
104

* * *

remaining activity at 1500 µM values by entry
Target: GMP-140 (Homo sapiens)
Sequence (P16109 42-830): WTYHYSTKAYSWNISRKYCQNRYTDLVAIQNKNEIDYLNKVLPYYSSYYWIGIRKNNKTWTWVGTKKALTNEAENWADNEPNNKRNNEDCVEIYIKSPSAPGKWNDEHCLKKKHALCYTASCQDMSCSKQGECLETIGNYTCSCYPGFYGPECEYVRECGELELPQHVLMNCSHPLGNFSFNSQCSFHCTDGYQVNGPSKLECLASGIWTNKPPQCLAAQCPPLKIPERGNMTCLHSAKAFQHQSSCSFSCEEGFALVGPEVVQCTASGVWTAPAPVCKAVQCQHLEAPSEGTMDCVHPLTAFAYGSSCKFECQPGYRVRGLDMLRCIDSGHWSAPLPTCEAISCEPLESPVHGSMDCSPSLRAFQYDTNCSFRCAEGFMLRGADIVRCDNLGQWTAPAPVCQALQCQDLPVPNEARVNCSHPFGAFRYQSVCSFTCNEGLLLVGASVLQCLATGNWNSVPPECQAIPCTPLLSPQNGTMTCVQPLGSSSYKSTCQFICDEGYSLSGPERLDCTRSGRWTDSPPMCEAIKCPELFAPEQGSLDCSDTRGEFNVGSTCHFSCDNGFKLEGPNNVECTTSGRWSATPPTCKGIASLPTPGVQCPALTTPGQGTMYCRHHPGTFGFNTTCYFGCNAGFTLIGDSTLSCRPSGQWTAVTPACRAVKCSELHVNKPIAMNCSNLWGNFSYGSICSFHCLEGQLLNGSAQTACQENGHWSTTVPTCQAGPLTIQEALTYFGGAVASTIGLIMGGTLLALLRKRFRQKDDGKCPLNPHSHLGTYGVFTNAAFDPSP
Experiment: ELISA of binding of biotinylated monoclonal antibodies G1, G2, G3 to immobilized GMP-140 with soluble peptide
Parameters: from tissue; host or cells: outdated human platelet packs (platelet lysate)
Settings: 2 h; mAb G1 2.5 micrograms/ml; peptide 1.5 mM; read-out: % Binding of Biotinylated MAbs G1
Ends that are not written are not given here.
Please give a number only; it is taken to be in %.

> print(dat)
                                  substance             attribute.measured  unit.name  val
1                    LETIGNYT [EGF 134-141]  remaining activity at 1500 µM          %   97
2  CSDTRGEFNVGST [REPEATS 544-556, reference compound]  remaining activity at 1500 µM          %  107
3  RKRFRQK [TRANSMEMBRANE 755-761, reference compound]  remaining activity at 1500 µM          %  100
4  KDDGKCPLNPHSHLGTY [C-TERMINUS 761-777, reference compound]  remaining activity at 1500 µM          %  100
5        VEIYIKSPSAPGKWNDEH [LECTIN 91-108]  remaining activity at 1500 µM          %   97

Recall and state the measured remaining activity at 1500 µM for YPGFYGPECEYVRE [EGF 145-158] .
94

Name the recorded remaining activity at 1500 µM of the substance listed here: CQDDGK [SECRETORY 720-721/762-765, reference compound]
106

Give me measured remaining activity at 1500 µM, please, for this substance: YTASCQDMS [LECTIN/EGF 118-126]
92

Please report the measured remaining activity at 1500 µM for LKKKHAL [LECTIN 110-116]
98

# credit: patent US5198424A
